Test system: Escherichia coli ATCC 25922
testSummary: MIC, broth microdilution (CLSI), reference strain
testContext: CAMHB
Square brackets hold non-standard residues; d marks the D form. Peptide text beside a SMILES is read from it. * marks the point of attachment. Dab(3S-OH) = NC[C@H](O)[C@H](N)C(=O)O; ΔZArg = N=C(N)NCC/C=C(\N)C(=O)O; NMeK = CN[C@@H](CCCCN)C(=O)O; dOrn = NCCC[C@@H](N)C(=O)O; NMeA = CN[C@@H](C)C(=O)O; Dab = NCC[C@H](N)C(=O)O; NH(CH2)4NH2 = NCCCCN*
endpointName: Ec: MIC Escherichia coli ATCC 25922

Solved cases below.
CN[C@@H](CCCCN)C(=O)N[C@H](C(=O)N[C@H](C(=O)NCC(=O)N[C@H](CCCN)C(=O)N1CCC[C@H]1C(=O)N[C@@H](Cc1cnc[nH]1)C(=O)N[C@@H](CCCCN)C(=O)N/C(=C\CCNC(=N)N)C(=O)N[C@@H](CCCCN)C(=O)NCCCCN)[C@@H](O)CN)[C@@H](O)CN [22.3] (H-[NMeK][Dab(3S-OH)][Dab(3S-OH)]G[dOrn]PHK[ΔZArg]K-{NH(CH2)4NH2}): ++ (≤8 μg/mL)
N=C(N)NCC/C=C(\NC(=O)[C@H](CCCCN)NC(=O)[C@H](Cc1cnc[nH]1)NC(=O)[C@@H]1CCCN1C(=O)[C@@H](CCCN)NC(=O)CNC(=O)[C@@H](NC(=O)[C@@H](NC(=O)[C@@H](N)CCCCN)[C@@H](O)CN)[C@@H](O)CN)C(=O)O [22.20] (H-K[Dab(3S-OH)][Dab(3S-OH)]G[dOrn]PHK[ΔZArg]-OH): + (≤32 μg/mL)
C[C@H](NC(=O)[C@@H](NC(=O)[C@@H](N)CCCCN)[C@@H](O)CN)C(=O)NCC(=O)N[C@H](CCCN)C(=O)N(C)[C@@H](C)C(=O)N[C@@H](Cc1cnc[nH]1)C(=O)N[C@@H](CCCCN)C(=O)N/C(=C\CCNC(=N)N)C(N)=O [24.65] (H-K[Dab(3S-OH)]AG[dOrn][NMeA]HK[ΔZArg]-NH2): + (≤32 μg/mL)
COc1ccc(C[C@H](NC(=O)[C@@H]2CCCN2C(=O)[C@@H](CCCN)NC(=O)CNC(=O)[C@H](CCN)NC(=O)[C@@H](NC(=O)[C@@H](N)CCCCN)[C@@H](O)CN)C(=O)N[C@@H](CCCCN)C(=O)N/C(=C\CCNC(=N)N)C(=O)O)cc1 [21.10] (H-K[Dab(3S-OH)][Dab]G[dOrn]PY(Me)K[ΔZArg]-OH): ++ (≤8 μg/mL)

Inquiry: // lookup Ec: MIC Escherichia coli ATCC 25922 for N=C(N)NCC/C=C(\NC(=O)[C@H](CCCCN)NC(=O)[C@H](Cc1cnc[nH]1)NC(=O)[C@@H]1CCCN1C(=O)[C@@H](CCCN)NC(=O)CNC(=O)[C@H](CO)NC(=O)[C@@H](NC(=O)[C@@H](N)CCCCN)[C@@H](O)CN)C(=O)N[C@@H](CCCCN)C(=O)NCCCCN [26.1] (H-K[Dab(3S-OH)]SG[dOrn]PHK[ΔZArg]K-{NH(CH2)4NH2})
Reply text: ++ (≤8 μg/mL)
